test system: MS2 coat protein; experiment: apparent KD of MS2 coat protein; higher = weaker reporter binding; settings: Eterna round: R107; input ligand: theophylline 2 mM
Below, each of the sequences is paired with its reported apparent KD of MS2 coat protein value.
Enter your answer as a number in nM; do not include the unit.

sequence="GUCUGAGUCUGAAGGAGCGACAUGAGGAUCACCCAUGUCUCCCGUUAUGGGAGUUCCUUAGGUCAGGUAGGUCGCAGACUCAGAC [#1 Exclusion - Arginine B Attempt #26 (Inspired by Omei)]" measurement_name="apparent KD of MS2 coat protein" value=172

apparent KD of MS2 coat protein for MS2 coat protein with input UGAAAGUAGGGAAGGAGCGCUACAACAUGAGGAUCACCCAUGUUAUGAGGAUCACCCAUGUGGCAGGUAGGUCGCCCAAAACAUG [Same State Arginine B] equals 92.7

apparent KD of MS2 coat protein for MS2 coat protein with input CGAGUAAGUUCAAUCGAAUAACGGUUUUCGCGAGGACCGGUACGGCCGCCACUCGUGUGAUAUCACACAUGAGGAUCACCCAUGU [3'end-1] equals 135

apparent KD of MS2 coat protein for MS2 coat protein with input AUAACAUGAGGAUCACCCAUGUAAGCAGAUACCAGCUAGGAAACUAGCCCUUGGCAGCUGCAAGGUGAUCCUAGGUAUCUGCAAU [(M1)-(M2)-(T1)-(T2)-(M)'-(T)'_Design6] equals 52.2

apparent KD of MS2 coat protein for MS2 coat protein with input GACCACAUGAGGAUCACCCAUGUCUUGGUCCGAGGACCGGUACGGCCGCCACUCGAGAGCCGUACAAAUAAACGGAGUGCCAUCA [theeternabot_sameState_MS2_Trp_A_31] equals 15.5

====

test system: MS2 coat protein; assay: apparent KD of MS2 coat protein; designed switch direction (-1 OFF switch, 1 ON switch): -1; higher = weaker reporter binding; settings: input ligand: FMN 200 uM
Mark not fulfilled for apparent KD of MS2 coat protein values under 40 nM, and fulfilled for everything at or above.

Known results for sequences:
sequence="UUUUCACAUGAGGAUCACCCAUGUGAGGAUAUGGAUUCGCUGGCCGUAGCCAGUGGAUCCAGAAGGCGCAUGAU [JL-ex1-4.06] (Eterna round: R97, puzzle: Exclusion 1)" measured_on="MS2 coat protein" class_label="not fulfilled"
sequence="UUAAUUAAUUAUAUAAGAUCACAUGAGGAUCACCCAUGUAUAUAGGAUAUCAGCUCGUUUAGAGCUGAGAAGGAUAUACAAUAU [ExNG3/3-B2] (Eterna round: R96, puzzle: Exclusion NG 3)" measured_on="MS2 coat protein" class_label=fulfilled

API: above_or_equal(metric=apparent KD of MS2 coat protein, cutoff=40 nM) for item GCAGGUUAAGUCAGGAUAUACCUAUGGAUACAUAGGUAGAAGGGACAUGAGGAUCACCCAUGUUUCUCAUCUGC [Mod of Eli 2 - Jieux - Brourd's mod of Exclusion 4] (Eterna round: R97, puzzle: Brourd's mod of Exclusion 4)
fulfilled

====

Below, each of the sequences is paired with its reported apparent KD of K4 kissing-loop reporter value.
tested on: K4 kissing-loop RNA reporter; test: apparent KD of K4 kissing-loop reporter; higher = weaker reporter binding; details: Eterna round: R107; input ligand: arginine 13.2 mM;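 also: bound reporter read as fluorescence of individual clusters on recovered sequencing chips by microscopy, with normalized cluster intensities fitted with a binding model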
Respond with a number, then the unit of measure.

These solved cases illustrate the format of a correct answer.
sequence="CCAAUCUUUUACGAUACCAGUCUAAUAUAUUUAAUCAAAACCCUCGCCGAGUGAUGUUCGGACCCUUGGCAGCGUUUGCGAGAGG [xssgstkmullin]" measured_on="K4 kissing-loop RNA reporter" value="365 nM"
sequence="UGUCAUUGGUCGGCCGCCACUUCAUGUAGAGUGAUGUUUUGUAGGACGGAUCGAAAGAUCUGUCGGAGGACCGGGACCGAUGACU [FiskerMod 16 - Jieux - Same State - Tryptophan B]" measured_on="K4 kissing-loop RNA reporter" value="119 nM"

Note to self: apparent KD of K4 kissing-loop reporter recorded for GGUAGCAUGGCGGCCGCCACUUACACCACGGCCCUUCUAGUGAUGUUAGAGUGGAUUAUUCCGUUAAGGACCGGGCCAUGCUACC was 430 nM

Note to self: apparent KD of K4 kissing-loop reporter recorded for AACUGGGUUCGUGAUACCAGCUCACACAUGAGUGAUGUUGAUGUAGUGGGCAAAAUGUGGAGCCCUUGGCAGCACUGUGACCACG [XTheo-B3] was 358 nM

Note to self: apparent KD of K4 kissing-loop reporter recorded for UGUCAUUGGUCUGAUACCAGUACCCUUGGCAGCCGAGGAGUGAUGUUCCAAGGAUACCAGUACCCUUGGCAGCAGACCGAUGACU [TheoBS 30 #DoubleAptamer #SwitchBubble] was 178 nM

Note to self: apparent KD of K4 kissing-loop reporter recorded for CUCGAGUGAUGUUCGAUUAUUUAUACAGAUACCAGUGAAUUUUAACACCCUUGGCAGCUGGUAGUAUCGUUGUAAUUUACACAAG [JR_ExcTheophyA_Sub004] was 163 nM

Note to self: apparent KD of K4 kissing-loop reporter recorded for GGUAGCAUGGCGGCCGCCACUAUCCUUCAUGGUUGACAUUAAGGAUAGCAUAGUGAUGUUAUGAAUAGGACCGGGCCAUGCUACC was 136 nM

====

Below, each of the sequences is paired with its reported apparent KD of MS2 coat protein value.
tested on: MS2 coat protein; test: apparent KD of MS2 coat protein; designed switch direction (-1 OFF switch, 1 ON switch): -1; higher = weaker reporter binding; settings: input ligand: microRNA oligo, concentration not stated
Respond with a number, then the unit of measure.

sequence="UUUAAUUUAAUUAAGAUCACAUGAGGAUCACCCAUGUAAUUAUAGGAUAUCAGCUCGUGUAGAGCUGAGAAGGAUAAUUACAUA [ExNG3/5-A3] (Eterna round: R96, puzzle: Exclusion NG 3)" value="58.2 nM"
sequence="GAAGAAAACCAAGGAUAUCGGAAAGGAAGUGUACGAGAAGGUGGACAUGGACAUGAGGAUCACCCAUGUGGCCCGAUGCCGUGG [PowerStrip EXNG 1.5] (Eterna round: R96, puzzle: Exclusion NG 1)" value="33.5 nM"
sequence="CGAUGCACGAGUCCACAUGAGGAUCACCCAUGUCGUGUUAGCGAGGAUAUCGGAGACACAUAGUAUGAGAAGGCGCGAACCUGA [Ex NG3 #21] (Eterna round: R96, puzzle: Exclusion NG 3)" value="11.2 nM"
sequence="GAACUGAAGCUUUGCUUUAGUCGUACAUGAGGAUCACCCAUGUAGGAUAUGGUAGGCAAAGCUUACUAGAAGGACAGAGUGAUC [Mat - Exclusion NG 3 - Mod of JL - D69] (Eterna round: R96, puzzle: Exclusion NG 3)" value="156 nM"
sequence="ACAUGAGGAUCACCCAUGUAAACAUAAUGGCUCAUGUAGAGUCAGGAUAUGCGUGGCGAACACGCGCAGAAGGGACAAGACUGG [Deportation 24 - Jieux - Exclusion NG 3] (Eterna round: R96, puzzle: Exclusion NG 3)" value="21 nM"
sequence="UACAUGAGGAUCACCCAUGUUUUGUCGUGUAUGGUAUUUAUCUAGGAUAUCAUUUGAUUUAUUUAUGAGAAGGAGAAUAUUAAU [JMF's solution 100] (Eterna round: R96, puzzle: Exclusion NG 3)" value="28.1 nM"

Note to self: apparent KD of MS2 coat protein recorded for AGCUGUGGCCGAGGAUAUCACGAACCAUGGAAAACCAUGGAACUCACACAUGAGGAUCACCCAUGUGAGAAGGCGGUCUCAGCA [Eli eng2 - 021] (Eterna round: R96, puzzle: Exclusion NG 2) was 8.68 nM

Note to self: apparent KD of MS2 coat protein recorded for AUAAUUAAUGCAGGAUAUCAGCACGUUUAGUGCUGAGAAGGGCACAUGAGGAUCACCCAUGUGAUCAAUUAAUAUUAAUAUUAU [ENG1/11-D2] (Eterna round: R96, puzzle: Exclusion NG 1) was 51.1 nM

Note to self: apparent KD of MS2 coat protein recorded for AACUGACAUGAGGAUCACCCAUGUCAGGAUAUGCUUCAUAAAAACAAACAAAAAUGAUGCAGAAGGGACAUGGA [Design 30 :P Sub-opt 6] (Eterna round: R96, puzzle: Exclusion 1) was 14.3 nM

Note to self: apparent KD of MS2 coat protein recorded for AGUCGGCGAGGAUAUACAUGAGGAUCACCCAUGUGAGAGAAUAAAGUGAGUUAGACAAGUAGAAGGCGCUGACA [JL Lego Mod 10] (Eterna round: R96, puzzle: Exclusion 3) was 40.9 nM

Note to self: apparent KD of MS2 coat protein recorded for ACAUGAGGAUCACCCAUGUGAACAUGAUGGCUGAUGUAGAGCUAGGAUAUGAGUGAAUAUCUAUCUCAGAAGGAGCUUGACUGG [Deportation 47 - Jieux - Exclusion NG 3] (Eterna round: R96, puzzle: Exclusion NG 3) was 14.1 nM

Note to self: apparent KD of MS2 coat protein recorded for UCGCUGCGAGGAUAUACAUGAGGAUCACCCAUGUGCGGGUCCGGGUCUUCGUCCAUUAGUAGAAGGCGCAGUGA [JL Laongeedie mod 4] (Eterna round: R96, puzzle: Exclusion 3) was 112 nM
